Data provenance: PubChem BioAssay (NCI)

# System: HL-60(TB) leukemia
# methodNotes: NCI tumour cell line growth inhibition, 48 h
Quick reference for TGI among some molecules
Response body: numeric value in µM, unit text excluded.

{"columns": ["molecule", "unitLabel", "TGI"],
 "data": [
  ["CC(=O)N1C2=CCCC2(C)c2ccccc21 (stereo not given)", "µM", 83.6]
]}

Prompt line: Any idea what TGI was measured for OC(CNc1ccnc2cc(Cl)ccc12)CNC1CCCCC1 (stereo not given) ?
Response line: 28.7

Prompt line: Also need C=C(C)[C@H](O)C(O)CC(C)[C@@H]1CCC23CC12CCC1[C@@]2(C)CCC(OC(C)=O)C(C)(C)C2CC(OC2OC(COC(C)=O)C(O)C(O)C2O)[C@]13C (stereo not given in full) , thanks.
Response line: 5.08

Prompt line: Also need CC(C)(C)c1cc(C(=O)/C=C/c2ccc3c(c2)CCO3)cc(C(C)(C)C)c1O , thanks.
Response line: 5.53

###

Quick reference for GI50 among some compounds
# Tested on: KM12 colon
# methodNotes: NCI tumour cell line growth inhibition, 48 h

// worked examples, GI50 included
{"columns": ["compound", "subjectOfTest", "reportedValue"],
 "data": [
  ["CN(C)c1ccc(O)c2c1C[C@H]1C[C@H]3[C@H](N(C)C)C(=O)C(C(N)=O)=C(O)[C@@]3(O)C(=O)C1=C2O", "KM12 colon", "6.29 µM"],
  ["CN1CCn2c(c(Sc3ccc(C(=O)NO)cc3)c3ccccc32)C1=O", "KM12 colon", "1.85 µM"],
  ["C=C1CC[C@@H]2[C@](C)(COC(C)=O)[C@H](OC(C)=O)CC[C@@]2(C)[C@@H]1C/C=C1/C(=O)OC[C@H]1OC(C)=O", "KM12 colon", "10.5 µM"]
]}

Prompt line: Any idea what GI50 was measured for N#C[S-].[Au+].c1ccc(CN2[CH-]N(Cc3ccccc3)C(c3ccccc3)=C2c2ccccc2)cc1 ?
Response line: 0.527 µM

Prompt line: Also need CC1=C(C(=O)Nc2ccc(F)c(Cl)c2)C(c2cccc(Oc3ccccc3)c2)NC(=O)N1 (configuration not stated) , thanks.
Response line: 14.9 µM

Prompt line: Also need O=Cc1ccc(O)c2ncccc12 , thanks.
Response line: 5.65 µM

Prompt line: Also need C=C1C(=O)O[C@H]2[C@H]1CC/C(CNS(=O)(=O)c1cccc3ccccc13)=C\CC[C@@]1(C)O[C@@H]21 , thanks.
Response line: 9.76 µM

###

# System: RXF 393 renal
# methodNotes: NCI tumour cell line growth inhibition, 48 h; in the data active = GI50 below about 0.43 µM; inactive = the rest
Assign a class; possible classes are YES (active), NO (inactive)

Prompt line: Could you please tell me the result logged for COc1cccc2c(=O)c3c(sc12)c(NCCN(C)C)nc1ccccc13 in this assay?
Response line: NO

Prompt line: Also need CCCCCCCCCCCC[n+]1ccc(C(N)=O)cc1 , thanks.
Response line: NO

Prompt line: Also need CS(=O)(=O)Nc1cc(-c2ccc3ncnc(Nc4ccc5c(cnn5Cc5ccccc5F)c4)c3c2)cnc1Cl , thanks.
Response line: NO

Prompt line: Also need CN(C)CCNC(=O)c1cc2c3ccccc3[nH]c2c2ncccc12 , thanks.
Response line: NO

Prompt line: Also need COC(=O)[C@@]1(O)C[C@H]2O[C@]1(C)n1c3ccccc3c3c4c(c5c6ccccc6n2c5c31)C(=O)NC4 , thanks.
Response line: YES

Prompt line: Also need COc1cc(/C=C/C(=O)c2c(C)n([O-])c3ccc(Cl)cc3[n+]2=O)cc(OC)c1OC , thanks.
Response line: NO

Prompt line: Also need CCCN(CCC)C(=O)[C@H](CC)[C@@H]1CC[C@@H](C)[C@@H]([C@H](C)[C@@H](O)[C@@H](C)C(=O)[C@H](CC)C2O[C@]3(C=C[C@@H](O)[C@]4(CC[C@@](C)([C@H]5CC[C@](O)(CC)[C@H](C)O5)O4)O3)[C@H](C)C[C@@H]2C)O1 (stereo partly drawn) , thanks.
Response line: NO

Prompt line: Also need CC1/C(=N/Nc2ccc([N+](=O)[O-])cc2)CC2C3(C)CCC2(C(C)C(=O)O)C(=O)C13 (stereo not drawn) , thanks.
Response line: NO

###

Quick reference for TGI among some molecules
# Test system: NCI-H460 lung
# methodNotes: NCI tumour cell line growth inhibition, 48 h

{"columns": ["molecule", "TGI"],
 "data": [
  ["Nc1nc(Cl)cc(NCCCCCCCCCCCCNc2cc(Cl)nc(N)n2)n1", "> 100 µM"],
  ["Cc1cccc2c1C(=O)OC2(C)c1cccc2ccccc12 (stereo unspecified)", "> 100 µM"]
]}

Prompt line: Any idea what TGI was measured for COc1cc(C(=O)CC2(O)C(=O)Nc3c(Cl)cc(Cl)cc32)ccc1O (stereo unspecified) ?
Response line: > 100 µM

Prompt line: Also need CC(=O)N1C2=CCCC2(C)c2ccccc21 (stereo unspecified) , thanks.
Response line: > 100 µM

Prompt line: Also need Clc1ccccc1-c1nnc2c(-c3ccccc3)nc3ccccc3n12 , thanks.
Response line: > 100 µM

Prompt line: Also need COCCNC(=O)c1ccc(-c2nc3ccc4[nH]ncc4c3c3c2CCCC3)cc1 , thanks.
Response line: 27.1 µM

Prompt line: Also need O=C1C[C@H]2CC3(CC[C@H]2CN1)OCCO3 , thanks.
Response line: > 100 µM

Prompt line: Also need Cc1nn(C(=O)Cc2ccccc2)c2c1C(c1ccccc1[N+](=O)[O-])SC(N)=N2 (stereo unspecified) , thanks.
Response line: > 100 µM

Prompt line: Also need CC1=C(C(=O)Nc2ccc(F)c(Cl)c2)C(c2cccc(Oc3ccccc3)c2)NC(=O)N1 (stereo unspecified) , thanks.
Response line: 38.4 µM

Prompt line: Also need COc1cc(-c2oc3c(OC)c(O)c(OC)c(O)c3c(=O)c2OC)ccc1O , thanks.
Response line: > 100 µM

Prompt line: Also need CN(C)CCCNc1ccc2nnn3c4ccc(OC(=O)c5ccc([N+](=O)[O-])cc5)cc4c(=O)c1c23 , thanks.
Response line: 17.9 µM

###

# Test system: UACC-62 melanoma
# methodNotes: NCI tumour cell line growth inhibition, 48 h
We use 40 µM as the dividing line for TGI: on or above the line is y, below is n.

// below: answered compounds
{"columns": ["compound", "className"],
 "data": [
  ["Cc1ccc(S(=O)(=O)NC2=NS(=O)(=O)c3cc(C)c(Cl)cc3S2)cc1", "y"],
  ["OCCNCCNc1c2ccccc2nc2oc3ccccc3c12", "n"],
  ["COc1ccc2c(c1)N=C1CSC(c3c(Cl)cccc3[N+](=O)[O-])N1C2 (configuration not stated)", "y"]
]}

Prompt line: Quick check: does Cn1c(=O)c(C(=O)NC(=O)OCc2ccccc2)cn(CCSCCOC(=O)NCCCCCCNC(=O)OCCSCCn2cc(C(=O)NC(=O)OCc3ccccc3)c(=O)n(C)c2=O)c1=O have TGI greater than or equal to 40 µM?
Response line: y

Prompt line: Also need COc1ccc(NS(=O)c2ccc(OC)cc2)cc1 (configuration not stated) , thanks.
Response line: y

Prompt line: Also need O=C(/C=C1/NC(=O)CS1)Nc1ccccc1 , thanks.
Response line: y

Prompt line: Also need O=C(OC(/C=C/c1ccccc1)P1(=O)N(Cc2ccccc2)[C@@H]2CCCC[C@H]2N1Cc1ccccc1)c1ccccc1 (some centres not stated) , thanks.
Response line: y

Prompt line: Also need COc1cc2cccc(NC(=O)c3cc(OC)c(OC)c(OC)c3Br)c2cc1OC , thanks.
Response line: n

###

Quick reference for TGI among some compounds
# Tested on: RPMI-8226 leukemia
# methodNotes: NCI tumour cell line growth inhibition, 48 h
Response body: numeric value in µM, unit text excluded.

Prompt line: Any idea what TGI was measured for CC[C@](C)(O)C(=O)O[C@H]1C(=O)O[C@@H]2C[C@H]3C(C)=C[C@H](O)[C@@H](O)[C@]3(C)[C@H]3[C@@]4(O)OC[C@]32[C@@H]1[C@@H](C)[C@H]4O ?
Response line: 24.4

Prompt line: Also need COc1ccc2c(c1)N=C1CSC(c3c(Cl)cccc3[N+](=O)[O-])N1C2 (stereo unspecified) , thanks.
Response line: 84.6

Prompt line: Also need CCCCCCCCCCCC[n+]1ccc(C(N)=O)cc1 , thanks.
Response line: 4.86

Prompt line: Also need OC(CNc1ccnc2cc(Cl)ccc12)CNC1CCCCC1 (stereo unspecified) , thanks.
Response line: 36.4

Prompt line: Also need O=S1c2ccccc2SCSc2ccccc21 , thanks.
Response line: 70.1

Prompt line: Also need O=C1NC(=NC2CCCCC2)C2(CCN(CCCC3(c4ccc(F)cc4)OCCO3)CC2)N1c1ccccc1 , thanks.
Response line: 64.5

Prompt line: Also need CC(C)(C)[Si](C)(C)OCC#C[C@@]1(O)CCCCC1CC(Sc1ccccc1)Sc1ccccc1 (stereo partly specified) , thanks.
Response line: 73.3

Prompt line: Also need N#CC1=C(N)Oc2c(sc3c(F)cccc23)C1c1ccc(F)cc1 (stereo unspecified) , thanks.
Response line: 14.7

Prompt line: Also need CCCCCCCSCC1C(=O)C23C(O)C1CCC2C12COC3(O)C(O)C1C(C)(C)CCC2O (stereo unspecified) , thanks.
Response line: 27.3

Prompt line: Also need CCOC(=O)C#Cc1c(CC(=O)OCC)nnn1[C@H]1O[C@@H](CO)[C@@H]2OC(C)(C)O[C@@H]21 , thanks.
Response line: 9.06
